Target: Beta-secretase 1 (Homo sapiens)
Sequence (P56817 whole entry): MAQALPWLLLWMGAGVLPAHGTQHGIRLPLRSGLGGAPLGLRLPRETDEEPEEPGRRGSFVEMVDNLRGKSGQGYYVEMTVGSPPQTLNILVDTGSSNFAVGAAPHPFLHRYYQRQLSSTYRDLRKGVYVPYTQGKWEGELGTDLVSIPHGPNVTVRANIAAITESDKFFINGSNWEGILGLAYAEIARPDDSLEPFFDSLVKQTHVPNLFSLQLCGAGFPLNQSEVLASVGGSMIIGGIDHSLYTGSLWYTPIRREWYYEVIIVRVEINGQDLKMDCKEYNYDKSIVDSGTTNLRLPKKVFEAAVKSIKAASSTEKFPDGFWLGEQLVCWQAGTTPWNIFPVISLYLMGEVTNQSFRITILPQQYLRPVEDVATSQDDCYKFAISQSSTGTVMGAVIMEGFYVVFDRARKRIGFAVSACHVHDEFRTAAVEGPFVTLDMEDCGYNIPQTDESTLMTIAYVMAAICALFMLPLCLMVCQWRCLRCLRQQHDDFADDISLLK
pIC50: −log10 of the molar value.
Property Label: pIC50

Smiles Text | Endpoint Value
C[C@]1(c2cc(NC(=O)c3ccc(Cl)cn3)cc(F)c2F)N=C(N)S[C@@]2(C(=O)O)C[C@H]21 | 8.05

---

Reported pIC50 by item:
Biological target: Cathepsin D (Homo sapiens)
Sequence (P07339 65-162 limits assumed): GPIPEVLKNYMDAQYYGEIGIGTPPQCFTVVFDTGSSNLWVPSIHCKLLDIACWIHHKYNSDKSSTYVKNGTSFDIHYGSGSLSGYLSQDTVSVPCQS
Sequence (P07339 169-412 limits assumed): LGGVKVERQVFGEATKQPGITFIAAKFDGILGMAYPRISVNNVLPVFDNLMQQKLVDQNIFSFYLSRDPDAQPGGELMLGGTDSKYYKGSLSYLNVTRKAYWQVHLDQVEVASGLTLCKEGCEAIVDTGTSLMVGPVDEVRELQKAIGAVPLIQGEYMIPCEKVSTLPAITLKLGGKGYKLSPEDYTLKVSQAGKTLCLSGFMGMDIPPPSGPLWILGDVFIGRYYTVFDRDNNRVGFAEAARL
pIC50: −log10 of the molar value.
Property Label: pIC50

Compound | Property Label | Censoring Operator | Endpoint Value
Cc1cc(C#N)cnc1C(=O)Nc1cc(F)c(F)c([C@@]2(CF)N=C(N)S[C@@]3(C(F)F)C[C@@H]23)c1 | pIC50 | = | 3.25
C#C[C@H](C)Oc1cnc(C(=O)Nc2cc(F)c(F)c([C@@]3(C)N=C(N)S[C@@]4(COC)C[C@H]43)c2)c(C)n1 | pIC50 | = | 3.02
C[C@]1(c2cc(NC(=O)c3ccc(Cl)cn3)cc(F)c2F)N=C(N)S[C@@]2(C(=O)O)C[C@H]21 | pIC50 | < | 3.40
C=CC(C)Oc1cnc(C(=O)Nc2ccc(F)c([C@@]3(C)N=C(N)S[C@@]4(COC)C[C@H]43)c2)cn1 (stereo not given in full) | pIC50 | < | 3.40
NC1=N[C@](CF)(c2cc(Nc3ncnc4cc(Cl)cnc34)ccc2F)[C@H]2C[C@@H]2S1 | pIC50 | = | 2.91

---

Quick reference for pIC50 among some compounds
Target: Beta-secretase 2 (Homo sapiens)
Sequence (Q9Y5Z0 whole entry): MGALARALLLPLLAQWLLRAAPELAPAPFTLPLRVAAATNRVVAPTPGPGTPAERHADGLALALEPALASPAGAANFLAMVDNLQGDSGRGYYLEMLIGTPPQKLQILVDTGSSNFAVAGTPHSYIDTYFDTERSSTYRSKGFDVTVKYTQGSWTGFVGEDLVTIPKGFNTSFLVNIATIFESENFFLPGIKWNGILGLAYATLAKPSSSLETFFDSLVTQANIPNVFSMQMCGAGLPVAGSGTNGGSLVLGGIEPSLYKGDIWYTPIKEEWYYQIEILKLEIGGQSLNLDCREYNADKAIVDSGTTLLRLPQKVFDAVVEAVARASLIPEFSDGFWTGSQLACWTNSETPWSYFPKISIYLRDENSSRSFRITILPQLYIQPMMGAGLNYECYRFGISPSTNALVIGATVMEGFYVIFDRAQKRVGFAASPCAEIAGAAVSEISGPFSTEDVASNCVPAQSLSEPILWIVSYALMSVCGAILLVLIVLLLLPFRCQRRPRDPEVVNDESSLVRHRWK
pIC50: −log10 of the molar value.
Property Label: pIC50

Compound | Target Of Assay | Endpoint Value
C[C@]1(c2cc(NC(=O)c3ccc(Cl)cn3)cc(F)c2F)N=C(N)S[C@@]2(C(=O)O)C[C@H]21 [US20160046618, Example 899] | Beta-secretase 2 (Homo sapiens) | 8.59
C#C[C@H](C)Oc1cnc(C(=O)Nc2cc(F)c(F)c([C@@]3(C)N=C(N)S[C@@]4(CF)C[C@H]43)c2)c(C)n1 [US20160046618, Example 616] | Beta-secretase 2 (Homo sapiens) | 6.91
C=CC(C)Oc1cnc(C(=O)Nc2ccc(F)c([C@@]3(C)N=C(N)S[C@@]4(COC)C[C@H]43)c2)cn1 (stereo not given in full) [US20160046618, Example 1063] | Beta-secretase 2 (Homo sapiens) | 6.26
C#CCOc1cnc(C(=O)Nc2ccc(F)c([C@@]3(C)N=C(N)S[C@@]4(CF)C[C@H]43)c2)cn1 [US20160046618, Example 822] | Beta-secretase 2 (Homo sapiens) | 7.83
C#C[C@H](C)Oc1cnc(C(=O)Nc2cc(F)c(F)c([C@@]3(C)N=C(N)S[C@@]4(COC)C[C@H]43)c2)c(C)n1 [US20160046618, Example 622] | Beta-secretase 2 (Homo sapiens) | 6.65
